Assay Target: mushroom tyrosinase
Test Description: Tyrosinase inhibition assay (spectrophotometric, L-tyrosine, dopachrome at 495 nm)
Assay Context: mushroom tyrosinase 100 U/mL, 1 mM L-tyrosine, 37 °C; mean of three experiments; read-out: Tyrosinase inhibitory activity IC50±SD
pIC50: −log10 of the molar value.
Would you please tag the item fulfilled when its pIC50 is 4 or above, and not fulfilled when it is below?

C=C1C(=O)O[C@@H]2/C=C(/C)[C@@H](O)C[C@@H](O)C(=C)C[C@H](OC(=O)/C(C)=C\C)[C@@H]12 [Compound 10, Hydroxyisonobilin]; not fulfilled
COc1ccc(-c2cc(=O)c3c(O)c(OC)c(O)cc3o2)cc1; not fulfilled
C=C1CC(OC(=O)C(C)=CC)C2C(C=C(C)C(O)CC1O)OC(=O)C2C (stereo not shown) [Compound 13, 11,13-Dihydro-8-tigloylhydroxyisonobilin]; not fulfilled
OC[C@H]1O[C@@H](OCCc2ccccc2)[C@H](O)[C@@H](O)[C@@H]1O [Compound 3, Phenylethyl ꞵ-D-glucopyranoside]; not fulfilled
C=C1C(=O)O[C@@H]2/C=C(/C)[C@@H](O)C[C@@H](O)C(=C)C[C@H](OC(=O)/C(C)=C/C)[C@@H]12 [Compound 8, 8-Tigloylhydroxyisonobilin]; not fulfilled

Query: Reported pIC50 at or above 4? C=C1C(=O)O[C@@H]2/C=C(/C)[C@H](O)C[C@@H](O)C(=C)C[C@H](OC(=O)/C(C)=C\C)[C@@H]12 [Compound 11, 3-Epi-hydroxyisonobilin]
Result: not fulfilled

Query: Reported pIC50 at or above 4? CCC(C)O[C@@H]1O[C@H](CO)[C@@H](O)[C@H](O)[C@H]1O (stereo partly drawn) [Compound 4, 1-Methylpropyl ꞵ-D-glucopyranoside]
Result: not fulfilled

====

Assay Target: AchE (from Electrophorus electricus) (Electrophorus electricus)
Construct: purchased Sigma-Aldrich (Milan, Italy)
Test Description: biochemical
Assay Context: read-out: AchE inhibitory activity IC50±SD
Quantity: IC50 (µM)
Answers are plain numbers, in µM.

Record summary for C=C1C(=O)O[C@@H]2/C=C(/C)[C@@H](O)C/C=C(\C)C[C@H](OC(=O)/C(C)=C\C)[C@@H]12 [Compound 14, Nobilin] : reported IC50 = 304

====

Assay Target: AchE (from Electrophorus electricus) (Electrophorus electricus, UniProt O42275)
Construct: purchased Sigma-Aldrich (Milan, Italy)
Sequence (O42275 24-633): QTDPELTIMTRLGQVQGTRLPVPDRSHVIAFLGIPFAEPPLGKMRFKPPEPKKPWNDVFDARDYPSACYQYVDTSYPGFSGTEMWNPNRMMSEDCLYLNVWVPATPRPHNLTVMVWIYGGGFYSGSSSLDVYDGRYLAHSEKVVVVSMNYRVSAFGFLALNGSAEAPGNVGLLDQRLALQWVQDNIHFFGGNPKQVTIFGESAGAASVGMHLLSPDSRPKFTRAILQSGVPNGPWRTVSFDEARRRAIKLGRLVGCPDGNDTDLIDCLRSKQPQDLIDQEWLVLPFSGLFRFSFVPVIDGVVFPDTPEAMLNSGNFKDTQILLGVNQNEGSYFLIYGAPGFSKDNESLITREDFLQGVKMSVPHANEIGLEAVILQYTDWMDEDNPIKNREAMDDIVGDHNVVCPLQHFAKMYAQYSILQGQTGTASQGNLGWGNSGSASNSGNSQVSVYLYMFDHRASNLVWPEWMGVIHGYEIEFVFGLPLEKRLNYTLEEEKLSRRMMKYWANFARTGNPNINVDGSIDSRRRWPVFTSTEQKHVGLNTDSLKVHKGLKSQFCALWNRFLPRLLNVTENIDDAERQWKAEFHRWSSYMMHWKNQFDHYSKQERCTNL
Test Description: biochemical
Quantity: pIC50
Give bare numbers, as −log10 of the molar value.

Record summary for "O=c1cc(-c2ccc(O)cc2)oc2cc(O)cc(O)c12" : reported pIC50 = 3.44

====

Assay Target: AchE (from Electrophorus electricus) (Electrophorus electricus, UniProt O42275)
Construct: purchased Sigma-Aldrich (Milan, Italy)
Test Description: biochemical
Assay Context: 0.2 U/mL AchE, acetylthiocholine, 37 °C; mean of three experiments; read-out: AchE inhibitory activity IC50±SD
Quantity: pIC50
One number for each entry, as −log10 of the molar value.

// known answers, use as guide
C=C1C(=O)O[C@@H]2/C=C(/C)[C@H](O)C[C@@H](O)C(=C)C[C@H](OC(=O)/C(C)=C\C)[C@@H]12 [Compound 11, 3-Epi-hydroxyisonobilin]; 3.58
COc1cc2ccc(=O)oc2cc1O[C@@H]1O[C@H](CO)[C@@H](O)[C@H](O)[C@H]1O; 3.64
C=C1C[C@H](OC(=O)/C(C)=C\C)[C@H]2C(=C)C(=O)O[C@@H]2/C=C(/C)[C@@H](O)CC1=O; 3.61

I need pIC50 for every entry listed below, if you could help.
1. COc1ccc(-c2oc3cc(O[C@@H]4O[C@H](CO)[C@@H](O)[C@H](O)[C@H]4O)c(OC)c(O)c3c(=O)c2O)cc1 [Compound 7, Camaraside]
2. C[C@@H]1O[C@@H](OC[C@H]2O[C@@H](Oc3cc(O)c4c(=O)cc(-c5ccc(O)cc5)oc4c3)[C@H](O)[C@@H](O)[C@@H]2O)[C@H](O)[C@H](O)[C@H]1O [Compound 6, Apigenin 7-O-rutinoside]
3. C=C1C(=O)O[C@@H]2/C=C(/C)[C@@H](O)C[C@@H](O)C(=C)C[C@H](OC(=O)/C(C)=C\C)[C@@H]12 [Compound 10, Hydroxyisonobilin]

Result:
1: 3.63; 2: 3.74; 3: 3.57

====

Assay Target: AchE (from Electrophorus electricus) (Electrophorus electricus)
Construct: purchased Sigma-Aldrich (Milan, Italy)
Test Description: biochemical
Assay Context: 0.2 U/mL AchE, acetylthiocholine, 37 °C; mean of three experiments; read-out: AchE inhibitory activity IC50±SD
Please go through the items and note down their IC50.
Give bare numbers, in µM.

// known answers, use as guide
COc1ccc(-c2cc(=O)c3c(O)c(OC)c(O)cc3o2)cc1; 190
OC[C@H]1O[C@@H](OCCc2ccccc2)[C@H](O)[C@@H](O)[C@@H]1O [Compound 3, Phenylethyl ꞵ-D-glucopyranoside]; 281
O=C(O)C[C@@H]1CCC(=O)[C@@H]1C/C=C\CCO[C@@H]1O[C@H](CO)[C@@H](O)[C@H](O)[C@H]1O [Compound 2, Tuberonic acid glucoside]; 343
CCC(C)O[C@@H]1O[C@H](CO)[C@@H](O)[C@H](O)[C@H]1O (stereo partly drawn) [Compound 4, 1-Methylpropyl ꞵ-D-glucopyranoside]; 352
C=C1CC(OC(=O)C(C)=CC)C2C(C=C(C)C(O)CC1O)OC(=O)C2C (stereo not drawn) [Compound 13, 11,13-Dihydro-8-tigloylhydroxyisonobilin]; 245

Bench note, AchE (from Electrophorus electricus) (Electrophorus electricus): entry C=C1C(=O)O[C@@H]2/C=C(/C)[C@@H](O)C[C@@H](O)C(=C)C[C@H](OC(=O)/C(C)=C/C)[C@@H]12 [Compound 8, 8-Tigloylhydroxyisonobilin] , its IC50 = 225

====

Assay Target: mushroom tyrosinase
Test Description: Tyrosinase inhibition assay (spectrophotometric, L-tyrosine, dopachrome at 495 nm)
Assay Context: mushroom tyrosinase 100 U/mL, 1 mM L-tyrosine, 37 °C; mean of three experiments; read-out: Tyrosinase inhibitory activity IC50±SD
Mark true only when IC50 stays strictly below 200 µM. Values equal to the cut-off are false.

Query: Bench note: check whether COc1ccc(-c2oc3cc(O[C@@H]4O[C@H](CO)[C@@H](O)[C@H](O)[C@H]4O)c(OC)c(O)c3c(=O)c2O)cc1 [Compound 7, Camaraside] shows IC50 below 200 µM
Result: true

Query: Bench note: check whether "C=C1C[C@H](OC(=O)/C(C)=C\C)[C@H]2C(=C)C(=O)O[C@@H]2/C=C(/C)[C@@H](O)CC1=O" shows IC50 below 200 µM
Result: false

Query: Bench note: check whether C[C@@H]1O[C@@H](OC[C@H]2O[C@@H](Oc3cc(O)c4c(=O)cc(-c5ccc(O)cc5)oc4c3)[C@H](O)[C@@H](O)[C@@H]2O)[C@H](O)[C@H](O)[C@H]1O [Compound 6, Apigenin 7-O-rutinoside] shows IC50 below 200 µM
Result: true

Query: Bench note: check whether O=C(O)C[C@@H]1CCC(=O)[C@@H]1C/C=C\CCO[C@@H]1O[C@H](CO)[C@@H](O)[C@H](O)[C@H]1O [Compound 2, Tuberonic acid glucoside] shows IC50 below 200 µM
Result: true

Query: Bench note: check whether "COc1cc2ccc(=O)oc2cc1O[C@@H]1O[C@H](CO)[C@@H](O)[C@H](O)[C@H]1O" shows IC50 below 200 µM
Result: true

Query: Bench note: check whether "C=C1C(=O)O[C@@H]2/C=C(/C)[C@@H](O)C/C=C(\C)C[C@H](OC(=O)/C(C)=C\C)[C@@H]12" shows IC50 below 200 µM
Result: false
